target: PDZ3 (PSD-95) (Homo sapiens); test: FP displacement (competition) of FITC-15 AA CRIPT by library peptide, IC50 and Ki; settings: Ki (µM), PDZ3, FP displacement of FITC-15 AA CRIPT probe by acetylated PSD library peptide
Sequence (P78352 313-393 limits assumed): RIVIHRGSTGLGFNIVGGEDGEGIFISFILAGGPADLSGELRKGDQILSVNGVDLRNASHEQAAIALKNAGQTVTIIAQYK
parameter_measured: Ki (µM)
The figure you give is taken to be in µM; do not add the unit.

Reference set, count: 2
compound | Ki (µM)
CC(=O)N[C@@H](Cc1ccc(O)cc1)C(=O)N[C@@H](CO)C(=O)N[C@@H](CC(C)C)C(=O)N[C@@H](CO)C(=O)N[C@@H](CCCCN)C(=O)N[C@@H](Cc1c[nH]cn1)C(=O)N[C@@H](CCC(=O)O)C(=O)N[C@@H](CO)C(=O)N[C@@H](CCC(=O)O)C(=O)N[C@@H](Cc1ccc(O)cc1)C(=O)N[C@@H](CC(N)=O)C(=O)N[C@H](C(=O)N[C@H](C(=O)N[C@@H](CCCNC(=N)N)C(=O)N[C@H](C(=O)O)C(C)C)[C@@H](C)O)[C@@H](C)O [NETO1] | 75
CC(=O)N[C@@H](Cc1ccc(O)cc1)C(=O)N[C@@H](CC(N)=O)C(=O)N[C@@H](CO)C(=O)N[C@H](C(=O)N[C@@H](CC(N)=O)C(=O)N[C@@H](CC(C)C)C(=O)N1CCC[C@H]1C(=O)N[C@@H](Cc1c[nH]cn1)C(=O)NCC(=O)N[C@@H](Cc1c[nH]cn1)C(=O)N[C@@H](CO)C(=O)N[C@H](C(=O)N[C@H](C(=O)N[C@@H](CCCNC(=N)N)C(=O)N[C@H](C(=O)O)C(C)C)[C@@H](C)O)[C@@H](C)O)[C@@H](C)O [NLGNX] | 40

As a next step, examine the compound that follows.
query: Input CC[C@H](C)[C@H](NC(=O)[C@@H]1CCCN1C(=O)[C@H](Cc1ccc(O)cc1)NC(C)=O)C(=O)NCC(=O)NCC(=O)N[C@@H](CO)C(=O)N[C@@H](CC(C)C)C(=O)N[C@@H](CC(N)=O)C(=O)N[C@@H](CO)C(=O)N[C@H](C(=O)N[C@H](C(=O)N[C@@H](CC(=O)O)C(=O)N[C@@H](CO)C(=O)N[C@@H](C)C(=O)N[C@@H](CC(C)C)C(=O)O)[C@@H](C)O)[C@@H](C)O [RGS14] , output reported Ki.
result: 27

---

target: PSG G335A (PSD-95); test: FP displacement (competition) of FITC-15 AA CRIPT by library peptide, IC50 and Ki; details: read-out: Ki (µM), PSG G335A; FP displacement of FITC-15 AA CRIPT probe by PSD library peptide; protein PSG G335A
parameter_measured: Ki (µM)
The figure you give is taken to be in µM; do not add the unit.

structure_notation | tgt | Ki (µM)
CC(=O)N[C@@H](Cc1ccc(O)cc1)C(=O)N[C@@H](Cc1c[nH]cn1)C(=O)N1CCC[C@H]1C(=O)N[C@@H](Cc1c[nH]cn1)C(=O)N1CCC[C@H]1C(=O)N[C@@H](Cc1c[nH]cn1)C(=O)N1CCC[C@H]1C(=O)N[C@@H](Cc1c[nH]cn1)C(=O)N[C@@H](CO)C(=O)N[C@@H](Cc1c[nH]cn1)C(=O)N[C@@H](CO)C(=O)N[C@H](C(=O)N[C@H](C(=O)N[C@@H](CCCNC(=N)N)C(=O)N[C@H](C(=O)O)C(C)C)[C@@H](C)O)[C@@H](C)O | PSG G335A (PSD-95) | 9

As a next step, examine the compound that follows.
query: Input CC(=O)N[C@@H](Cc1ccc(O)cc1)C(=O)N1CCC[C@H]1C(=O)N[C@@H](CCC(N)=O)C(=O)N[C@@H](Cc1c[nH]cn1)C(=O)N[C@@H](CC(C)C)C(=O)N[C@@H](CCCNC(=N)N)C(=O)N[C@H](C(=O)N[C@@H](C)C(=O)N[C@@H](CO)C(=O)N[C@@H](CCCCN)C(=O)N[C@@H](CC(N)=O)C(=O)N[C@@H](CCC(=O)O)C(=O)N[C@H](C(=O)N[C@H](C(=O)N[C@H](C(=O)O)C(C)C)[C@@H](C)O)C(C)C)[C@@H](C)O , output reported Ki.
result: 349
